Values were extracted from ChEMBL document CHEMBL5137055.

Experiment: Binding affinity to amyloid beta (unknown origin) aggregates
Parameters: species or system Homo sapiens
Endpoint Label: pKi
Please express pKi as -log10 of the molar concentration.

Use these answered entries as a reference point.
CN(C)c1ccc2cc(/C=C/C=C/C=C(C#N)C#N)ccc2c1 ... 7.49
CN(C)c1ccc2cc(/C=C/C=C(C#N)C#N)ccc2c1 ... 7.01
CC(=C(C#N)C#N)c1ccc2cc(N(C)CCF)ccc2c1 ... 9.70

Value of pKi reported for the compound CC(=C(C#N)C#N)c1ccc2cc(N(C)C)ccc2c1 is 8.00

* * *

Molecular target: Amyloid-beta precursor protein (Homo sapiens, UniProt P05067)
Sequence (P05067 whole entry): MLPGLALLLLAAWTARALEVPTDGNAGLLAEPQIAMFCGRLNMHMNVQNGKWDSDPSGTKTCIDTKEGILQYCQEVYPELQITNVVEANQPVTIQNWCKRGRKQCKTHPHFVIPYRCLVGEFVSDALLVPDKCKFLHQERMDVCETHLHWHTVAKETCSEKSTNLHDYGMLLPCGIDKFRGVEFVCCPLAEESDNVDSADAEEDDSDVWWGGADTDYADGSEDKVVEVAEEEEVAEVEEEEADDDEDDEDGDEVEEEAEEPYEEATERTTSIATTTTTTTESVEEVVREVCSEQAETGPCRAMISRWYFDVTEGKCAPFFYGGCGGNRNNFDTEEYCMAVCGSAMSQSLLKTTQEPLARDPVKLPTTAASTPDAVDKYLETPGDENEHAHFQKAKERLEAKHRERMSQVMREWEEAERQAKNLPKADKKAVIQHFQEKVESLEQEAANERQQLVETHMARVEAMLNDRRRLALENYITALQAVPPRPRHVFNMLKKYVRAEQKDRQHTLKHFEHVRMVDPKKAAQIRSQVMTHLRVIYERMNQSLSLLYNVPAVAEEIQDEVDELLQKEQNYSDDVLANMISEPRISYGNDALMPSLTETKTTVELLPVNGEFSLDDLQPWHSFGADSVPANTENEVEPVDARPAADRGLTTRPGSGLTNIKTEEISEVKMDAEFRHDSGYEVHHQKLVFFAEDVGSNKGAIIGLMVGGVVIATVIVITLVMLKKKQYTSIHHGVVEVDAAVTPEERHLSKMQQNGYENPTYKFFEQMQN
Assay: Binding affinity to amyloid beta (1 to 42) (unknown origin) monomer
Endpoint Label: log10 Kd (log10 of the value in µM)
Units before log transform: µM; reported quantity: Kd; transform: log10.

Use these answered entries as a reference point.
CCO[n+]1ccc(/C=C/c2ccc(N(C)C)cc2)c2ccccc21 ... 1.25
CCCCN(CCCC)c1ccc2cc(/C=C/c3cc[n+](CCO)c4ccccc34)ccc2c1 ... 3.04
COCCOCCn1c2ccccc2c2cc(/C=C/c3cc[n+](C)c4ccccc34)ccc21 ... 1.60
CCCCN(CCCC)c1ccc2cc(/C=C/c3c[n+](C)cc4ccccc34)ccc2c1 ... 1.40
CCN(CC)c1ccc(/C=C/C2=CC(/C=C/c3ccc(N(C)C)cc3)=[O+][B-](F)(F)O2)cn1 ... -1.34
CCCCN(CCCC)c1ccc2cc(/C=C/c3cc[n+](C)c4ccccc34)ccc2c1 ... 2.45
CCCN(CCC)c1ccc(/C=C/c2cc[n+](OCC)c3ccccc23)cc1 ... 1.12

Value of log10 Kd reported for the molecule C[n+]1ccc(/C=C/c2ccc(N(c3ccccc3)c3ccccc3)cc2)c2ccccc21 is 1.50

* * *

Test: Binding affinity to amyloid beta (unknown origin) aggregates
Design: species or system Homo sapiens
The entries below are paired with their reported pKd.
Please express pKd as -log10 of the molar concentration.

Use these answered entries as a reference point.
CN(C)c1ccc2cc(/C=C/C=C(C#N)C#N)ccc2c1 ... 8.06
COCCOCCOCCOC(=O)/C(C#N)=C/c1ccc(N2CCCCC2)cc1 ... 4.71
CCOC(=O)CN1C(=O)S/C(=C\C=C\c2ccc3c(c2)Sc2ccccc2N3C)C1=O ... 7.99
COCCOCCOCCOC(=O)/C(C#N)=C/c1ccc(-c2ccc3cc(N4CCCCC4)ccc3c2)o1 ... 6.44
CC1=CC(C)=[N+]2C1=C(CCCN1CCNc3ccccc31)c1c(C)cc(/C=C/c3ccc(N(C)C)s3)n1[B-]2(F)F ... 7.74
CCOC(=O)CN1C(=O)/C(=C/c2ccc3c(c2)Sc2ccccc2N3C)SC1=S ... 8.12

Now consider a different molecule.
Value of pKd reported for the molecule CN(C)c1ccc2cc(/C=C/C=C/C=C(C#N)C#N)ccc2c1 is 8.72

* * *

Biological target: Amyloid-beta precursor protein (Homo sapiens)
Test: Binding affinity to human amyloid beta (1 to 42) aggregates measured by fluorescence assay
Endpoint Label: Kd (nM)
Number in nM, nothing else.

Measured Kd for this entry CCN(CC)c1ccc(/C=C/C2=CC(/C=C/c3ccc(N(CC)CC)nc3)=[O+][B-](F)(F)O2)cn1 on Amyloid-beta precursor protein (Homo sapiens): 27
